Assay: Identifying Small Molecule Inhibitors of Pancreatic Cancer Stem Cells (A278, Adherent) (AID 1259361);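 note: viability read after 48 h compound exposure; nearly all actives have a fitted effect of over 35% in size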
Conditions: series mostly up to 46.1 µM
Records with an inconclusive call do not appear. Calls of active or inactive are those of the source. Calls come from the whole dose curve; as a rule, active = well fitted cell-killing curve with a large enough effect; inconclusive = small, poorly fitted or top-dose-only effect; inactive = flat fitted curve, though single readings scatter.

smiles-structure	IC50 (viability decrease)
O=C(c1ccc(Nc2nccc(-c3cc4ccccc4s3)n2)cc1)N1CCC(N2CCCC2)CC1	18.7 µM (active)
CN1CCC(CNc2ccc3ncc(-c4cccc(OC(F)(F)F)c4)n3n2)CC1	18.7 µM (active)
COc1cc2ncn(-c3cc(OCc4ccccc4C(F)(F)F)c(C(N)=O)s3)c2cc1OC	1.48 µM (active)
C=CC(=O)Nc1cc2c(Nc3ccc(F)c(Cl)c3)ncnc2cc1C#CC(C)(C)N1CCN(C)CC1	6.62 µM (active)

###

Assay: Quantitative High-Throughput drug screen in 47 multiple myeloma cell lines against the NCATS MIPE library collection: KMM1_JCRB cell viability assay (AID 1918960); note: nearly all actives have a fitted effect of over 30% in size
Conditions: KMM1 myeloma viability, CellTiter-Glo ATP luminescence, 48 h; series mostly up to 45.8 µM
Results filed as inconclusive are left out. Calls of active or inactive are those of the source. The call rests on the fitted dose curve; in most records, active means well fitted cell-killing curve with a large enough effect; inconclusive means small, poorly fitted or top-dose-only effect, or effect the other way; inactive means no such curve, though single readings can be large or run the other way.
Labels: active, inactive

compound	class-label
CN(C1CCc2c(c3ccccc3n2CC(=O)O)C1)S(=O)(=O)c1ccc(F)cc1 (centres undefined)	active
Cc1cc(CN2CCN(c3c(Br)cnc4nc(-c5ccc(N6CCN(C)CC6)cc5)[nH]c34)CC2)no1	inactive
CC(=O)Nc1sc2c(c1-c1nc3ccccc3s1)CNC2	inactive
c1cc(-c2cnn3cc(-c4ccc(OCCN5CCCCC5)cc4)cnc23)ccn1	inactive
CCC(=C(c1ccccc1)c1ccc(OCCN(C)C)cc1)c1ccccc1	active
c1ccc2c(CCNc3ccc(Nc4ccncc4)cc3)c[nH]c2c1	active
Cc1c(Cn2c(C)nc3c(C(=O)O)cc(N4CCOCC4)cc32)cccc1C(F)(F)F	active
COc1cccc2nc(-c3cccs3)nc(NN3C(=O)C=C(C)C3=O)c12	active
CC1(O)CC(c2nc(-c3ccc4ccc(-c5ccccc5)nc4c3)c3c(N)nccn23)C1 (centres undefined)	active
O=C(O)Cn1nnc(-c2cc(N3CCC(Oc4cc(F)ccc4Br)CC3)no2)n1	inactive
Cc1cc(N2CCOCC2)cc2[nH]c(-c3c(NC[C@@H](O)c4cccc(Cl)c4)cc[nH]c3=O)nc12	active
Cn1c2cc(S(C)=O)sc2c2cnn(Cc3cccc(N)c3)c(=O)c21 (centres undefined)	inactive
CN1CCC(CNc2ccc3ncc(-c4cccc(OC(F)(F)F)c4)n3n2)CC1	active
O=C(C=Cc1cccc(S(=O)(=O)Nc2ccccc2)c1)NO	active
O=C(O)[C@H](Cc1c[nH]c2ccccc12)N1C(=O)c2ccccc2C1=O	inactive
COC(=O)[C@]12CCC(C)(C)C[C@@H]1[C@@H]1C(=O)C=C3[C@@]4(C)C=C(C#N)C(=O)C(C)(C)[C@@H]4CC[C@@]3(C)[C@]1(C)CC2	active
CCCCCCCCCC(=O)N[C@@H](Cc1c[nH]c2ccccc12)C(=O)N[C@H](CC(N)=O)C(=O)N[C@@H](CC(=O)O)C(=O)N[C@@H]1C(=O)NCC(=O)N[C@@H](CCCN)C(=O)N[C@@H](CC(=O)O)C(=O)N[C@H](C)C(=O)N[C@@H](CC(=O)O)C(=O)NCC(=O)N[C@H](CO)C(=O)N[C@@H]([C@@H](C)CC(=O)O)C(=O)N[C@@H](CC(=O)c2ccccc2N)C(=O)O[C@@H]1C	inactive
O=C(c1ccc(Nc2nccc(-c3cc4ccccc4s3)n2)cc1)N1CCC(N2CCCC2)CC1	active
CCCCOc1c(C(=O)c2c(F)cc(C)cc2F)cnc2n[nH]cc12	active
Nc1ccn([C@@H]2O[C@H](CO)[C@H](O)C2(F)F)c(=O)n1	active
CCc1c2c(nc3ccc(O)cc13)-c1cc3c(c(=O)n1C2)COC(=O)[C@]3(O)CC	active
CC(C)c1cc(-c2n[nH]c(=O)n2-c2ccc3c(ccn3C)c2)c(O)cc1O	active
COc1cc2ncnc(Nc3ccc(F)c(Cl)c3)c2cc1NC(=O)C=CCN1CCCCC1	active
CC(C)Nc1cc(C(F)(F)F)cc2nc(NC(=O)c3cccnc3)nn12	inactive
O=C(C=Cc1cccnc1)NCCCCC1CCN(C(=O)c2ccccc2)CC1	active
Clc1ccc2ncc(-c3cccc(NC4CNC4)n3)n2c1	active
Cc1cc(C(=O)N2CCN(c3cccc(Cl)c3)CC2)n(-c2ccccc2)n1	active
CC(=O)OCCN1C(=O)c2c(C)nc3ccc(S(=O)(=O)N4CCOCC4)cc3c2C1=O	inactive
C[C@@]12O[C@@H](C[C@]1(O)CO)n1c3ccccc3c3c4c(c5c6ccccc6n2c5c31)CNC4=O	active
OCCCNc1cc(-c2ccnc(Nc3cccc(Cl)c3)n2)ccn1	active
CCOc1ccccc1OCCNC(C)Cc1ccc(OC)c(S(N)(=O)=O)c1 (centres undefined)	inactive
CN1CC[C@@H](c2c(O)cc(O)c3c(=O)cc(-c4ccccc4Cl)oc23)[C@@H](O)C1	active
COc1cc2c(cc1-c1c(C)noc1C)ncc1[nH]c(=O)n([C@H](C)c3ccccn3)c12	active
Cc1nc(N)ncc1-c1nc(N2CCOCC2)c2sc(C(C)(C)O)cc2n1	active
